Below, each entry is listed alongside its reported SDW (shoot dry weight).
system: wheat (Triticum aestivum) cv. Balitus; assay: Root and shoot dry weight and leaf nitrogen content of hydroponically grown wheat under optimal conditions (Example 1); type: in vivo; conditions: concentration 250 mg/L

>  <compound>
N[C@@H](CCC(=O)O)C(=O)O [Glutamic acid, glutamic acid]

>  <target_of_assay>
wheat (Triticum aestivum) cv. Balitus

>  <SDW (shoot dry weight) [g]>
1.58

$$$$
>  <compound>
O=C(O)[C@@H]1CCCN1 [Proline, proline]

>  <target_of_assay>
wheat (Triticum aestivum) cv. Balitus

>  <SDW (shoot dry weight) [g]>
1.57

$$$$
>  <compound>
N[C@@H](CC(=O)O)C(=O)O [Aspartic acid, aspartic acid]

>  <target_of_assay>
wheat (Triticum aestivum) cv. Balitus

>  <SDW (shoot dry weight) [g]>
1.50

$$$$
>  <compound>
O=C(O)CCC(=O)C(=O)O [2-oxoglutarate]

>  <target_of_assay>
wheat (Triticum aestivum) cv. Balitus

>  <SDW (shoot dry weight) [g]>
1.65

$$$$
>  <compound>
NC(=O)CC[C@H](N)C(=O)O [glutamine]

>  <target_of_assay>
wheat (Triticum aestivum) cv. Balitus

>  <SDW (shoot dry weight) [g]>
1.62

$$$$
>  <compound>
NCC(=O)O [glycine]

>  <target_of_assay>
wheat (Triticum aestivum) cv. Balitus

>  <SDW (shoot dry weight) [g]>
1.65

$$$$

* * *

tested on: wheat (Triticum aestivum) cv. Balitus; experiment: Root and shoot dry weight and leaf nitrogen content of hydroponically grown wheat under optimal conditions (Example 1); assay type: in vivo; conditions: concentration 100 mg/L
Listing of entries alongside the reported SDW % of control.

>  <compound>
O=C(O)CCC(=O)C(=O)O [2-oxoglutarate]

>  <SDW % of control>
+5.3%

$$$$
>  <compound>
CC(=O)N1CSCC1C(=O)O (centres unmarked)

>  <SDW % of control>
+7.2%

$$$$
>  <compound>
NCC(=O)O

>  <SDW % of control>
+5.9%

$$$$
>  <compound>
NC(=O)CC[C@H](N)C(=O)O

>  <SDW % of control>
+5.3%

$$$$
>  <compound>
N[C@@H](CCC(=O)O)C(=O)O

>  <SDW % of control>
+2.0%

$$$$

* * *

system: wheat (Triticum aestivum) cv. Balitus; assay: Root and shoot dry weight and leaf nitrogen content of hydroponically grown wheat under optimal conditions (Example 1); assay type: in vivo; conditions: concentration 250 mg/L
Overview of reported RDW % of control across a group of molecules:
property_name: RDW % of control

>  <molecule>
N[C@@H](CC(=O)O)C(=O)O

>  <value>
+15.0%

$$$$
>  <molecule>
O=C(O)CCC(=O)C(=O)O [2-oxoglutarate]

>  <value>
+13.8%

$$$$
>  <molecule>
NC(=O)CC[C@H](N)C(=O)O

>  <value>
+12.5%

$$$$
>  <molecule>
N[C@@H](CCC(=O)O)C(=O)O

>  <value>
+15.0%

$$$$
>  <molecule>
NCC(=O)O

>  <value>
+7.5%

$$$$
>  <molecule>
O=C(O)[C@@H]1CCCN1

>  <value>
+7.5%

$$$$

* * *

test system: wheat (Triticum aestivum) cv. Balitus; test: Root and shoot dry weight and leaf nitrogen content of hydroponically grown wheat under optimal conditions (Example 1); type: in vivo; details: concentration 100 mg/L
SDW (shoot dry weight) for assorted compounds

>  <compound>
O=C(O)CCC(=O)C(=O)O [2-oxoglutarate]

>  <SDW (shoot dry weight)>
1.60 g

$$$$
>  <compound>
N[C@@H](CCC(=O)O)C(=O)O [Glutamic acid, glutamic acid]

>  <SDW (shoot dry weight)>
1.55 g

$$$$
>  <compound>
NC(=O)CC[C@H](N)C(=O)O [glutamine]

>  <SDW (shoot dry weight)>
1.60 g

$$$$
>  <compound>
CC(=O)N1CSCC1C(=O)O (centres unmarked) [NATCA, N-acetyl thiazolidine 4-carboxylic acid]

>  <SDW (shoot dry weight)>
1.63 g

$$$$
>  <compound>
NCC(=O)O [glycine]

>  <SDW (shoot dry weight)>
1.61 g

$$$$

* * *

tested on: wheat (Triticum aestivum) cv. Balitus; assay: Root and shoot dry weight and leaf nitrogen content of hydroponically grown wheat under optimal conditions (Example 1); assay type: in vivo; conditions: concentration 100 mg/L

>  <compound>
N[C@@H](CCC(=O)O)C(=O)O

>  <RDW % of control>
+6.3%

$$$$
>  <compound>
CC(=O)N1CSCC1C(=O)O (centres unmarked)

>  <RDW % of control>
+12.5%

$$$$
>  <compound>
NCC(=O)O

>  <RDW % of control>
+5.0%

$$$$
>  <compound>
NC(=O)CC[C@H](N)C(=O)O

>  <RDW % of control>
+10.0%

$$$$
>  <compound>
O=C(O)CCC(=O)C(=O)O [2-oxoglutarate]

>  <RDW % of control>
+8.8%

$$$$

* * *

Test system: wheat (Triticum aestivum) cv. Balitus
Experiment: Root and shoot dry weight and leaf nitrogen content of hydroponically grown wheat under optimal conditions (Example 1)
Format: in vivo
Details: concentration 250 mg/L
Description: To investigate the effect of the combinations on the weight parameters, the seeds of wheat (Triticum aestivum) cv. Balitus were sown in a hydroponic growing system (Araponics, Liege, Belgium) using Hoagland's solution (control). […] The root dry weight (RDW), shoot dry weight (SDW) and the nitrogen content in the leaves of at least 30 plants were measured 45 days after the plants had been sown. RDW and SDW were recorded after drying the plants at 70° C. for 2 days.
Known RDW (root dry weight) of a selection of molecules
property_name: RDW (root dry weight) (g)

>  <molecule>
O=C(O)[C@@H]1CCCN1

>  <units_of_measure>
g

>  <value>
0.86

$$$$
>  <molecule>
O=C(O)CCC(=O)C(=O)O [2-oxoglutarate]

>  <units_of_measure>
g

>  <value>
0.91

$$$$
>  <molecule>
NC(=O)CC[C@H](N)C(=O)O

>  <units_of_measure>
g

>  <value>
0.90

$$$$
>  <molecule>
N[C@@H](CC(=O)O)C(=O)O

>  <units_of_measure>
g

>  <value>
0.92

$$$$
>  <molecule>
NCC(=O)O

>  <units_of_measure>
g

>  <value>
0.86

$$$$
>  <molecule>
N[C@@H](CCC(=O)O)C(=O)O

>  <units_of_measure>
g

>  <value>
0.92

$$$$
